tested on: U2OS; assay: cell viability relative to DMSO; higher = less toxic; settings: 72 h; 1 nM
cell viability listing for selected compounds.
Provide only the numeric value, understood in %.

Past entries and their recorded results:
- N[C@@H](CCNCc1ccc(Cl)cc1)C(=O)N1CCCCC1: 98.9
- N[C@@H](C(=O)O)c1nn[nH]n1 (racemic) [tetrazol-5-yl-glycine-(RS)]: 104
- CN(C)CCCO[C@@H]1[C@H]2OC(C)(C)O[C@H]2O[C@@H]1[C@H](O)CO: 102
- NC(=O)N1c2ccccc2CC(O)c2ccccc21 (configuration not stated) [licarbazepine]: 108
- CC(C)C[C@H](NC(=O)[C@H](CCc1ccccc1)NC(=O)CN1CCOCC1)C(=O)N[C@@H](Cc1ccccc1)C(=O)N[C@@H](CC(C)C)C(=O)[C@@]1(C)CO1: 96
- COc1cc(C[C@H]2C(=O)OC[C@@H]2Cc2ccc(OC)c(OC)c2)ccc1O: 101

Qu. Which cell viability value is on record for CCCCCCCCCCCCCCCC(=O)O[C@@H]1[C@@H](O)[C@@H](O)[C@@H]([C@H](NC(=O)[C@@H]2C[C@@H](CCC)CN2C)[C@H](C)Cl)O[C@@H]1SC [clindamycin-palmitate] ?
Ans. 94.2

----------
tested on: Caco-2; assay: cell viability relative to DMSO; higher = less toxic; conditions: 72 h; 10000 nM
quantity-measured: cell viability (%)
Provide only the numeric value, understood in %.

Past entries and their recorded results:
• CC(=O)c1ccc2c(c1)N(CCCN1CCN(CCO)CC1)c1ccccc1S2 = 97.7
• CO/N=C(\C(=O)N[C@@H]1C(=O)N2C(C(=O)O)=CCS[C@H]12)c1csc(N)n1 = 95.7
• C=C1CC[C@H](O)C/C1=C/C=C1\CCC[C@]2(C)[C@@H]([C@H](C)CCCC(C)C)CC[C@@H]12 = 144

Qu. Which cell viability value is on record for COc1cc(C[C@H]2C(=O)OC[C@@H]2Cc2ccc(OC)c(OC)c2)ccc1O ?
Ans. 77.1

Qu. Then CC(=O)[C@@]1(O)CC[C@H]2[C@@H]3C[C@H](C)C4=CC(=O)CC[C@]4(C)[C@H]3CC[C@@]21C ?
Ans. 89.1

----------
test system: Vero E6; assay: cell viability relative to DMSO; higher = less toxic; settings: 72 h; 1000 nM
quantity-measured: cell viability (%)
Provide only the numeric value, understood in %.

Past entries and their recorded results:
* Cc1ccc2nc(NCCN)c3ncc(C)n3c2c1 | 90.3
* CN1CCN(c2ccc3ccccc3n2)CC1 | 97.1
* O=C[C@H](O)[C@@H](O)[C@H](O)CO | 94.3
* CCCCc1nc(Cl)c(CO)n1Cc1ccc(-c2ccccc2-c2nnn[nH]2)cc1 | 98.1
* Nc1nc(=O)c2c([nH]1)NCC(CNc1ccc(C(=O)N[C@@H](CCC(=O)O)C(=O)O)cc1)N2C=O (some centres undefined) | 97.2

Qu. Could you share what cell viability was measured for c1cc(OCCN2CCCCC2)cc(-c2n[nH]c3ccc(-c4nnc[nH]4)cc23)c1 , tested on Vero E6?
Ans. 103

----------
cell viability listing for selected molecules.
tested on: Caco-2; assay: cell viability relative to DMSO; higher = less toxic; conditions: 72 h; 1 nM
Provide only the numeric value, understood in %.

• O=C(CBr)N1CC([N+](=O)[O-])([N+](=O)[O-])C1 [RRx-001] = 105
• Cc1nc(N)sc1-c1ccnc(Nc2ccc(N3CCOCC3)cc2)n1 [CYC116] = 99.3

Qu. Which cell viability value is on record for CCCCOC(=O)c1cc2c(cn1)[nH]c1ccccc12 [beta-CCB] ?
Ans. 95.1

Qu. Then CN(C)NC(=O)CCC(=O)O [daminozide] ?
Ans. 93.5

Qu. Then CC[C@H](C)[C@H](N)C1=N[C@H](C(=O)N[C@@H](CC(C)C)C(=O)N[C@H](CCC(=O)O)C(=O)N[C@H](C(=O)N[C@H]2CCCCNC(=O)[C@H](CC(N)=O)NC(=O)[C@@H](CC(=O)O)NC(=O)[C@H](Cc3cnc[nH]3)NC(=O)[C@@H](Cc3ccccc3)NC(=O)[C@H]([C@@H](C)CC)NC(=O)[C@@H](CCCN)NC2=O)[C@@H](C)CC)CS1 [bacitracin] ?
Ans. 104

Qu. Then Oc1ccc2[nH]cc(C3=CCNCC3)c2n1 ?
Ans. 79.9

Qu. Then COc1ccc(/C=C/C(=O)O)cc1 [trans-4-methoxycinnamic-acid] ?
Ans. 95.1

Qu. Then O=S1(=O)CCN(CN2CCS(=O)(=O)NC2)CN1 [taurolidine] ?
Ans. 102

Qu. Then CN1C(C(=O)Nc2ccccn2)=C(O)c2sc(Cl)cc2S1(=O)=O [lornoxicam] ?
Ans. 110

Qu. Then CC(=O)[C@@]1(O)CC[C@H]2[C@@H]3C=C(Cl)C4=CC(=O)[C@@H]5C[C@@H]5[C@]4(C)[C@H]3CC[C@@]21C [CYPROTERONE] ?
Ans. 106

Qu. Then CCCN1CCC[C@@H]2Cc3n[nH]cc3C[C@H]21 [quinpirol-(-)] ?
Ans. 102

Qu. Then CN1CCN(c2ccc3ccccc3n2)CC1 [N-methylquipazine] ?
Ans. 102

Qu. Then Cc1cccc(CN2CCN(C(c3ccccc3)c3ccc(Cl)cc3)CC2)c1 (configuration not stated) [meclizine] ?
Ans. 91.9

Qu. Then C[N+](C)(C)CCCCCNCC12CC3CC(CC(C3)C1)C2 [IEM1460] ?
Ans. 96.2

----------
tested on: U2OS; assay: cell viability relative to DMSO; higher = less toxic; conditions: 72 h; 1 nM
cell viability listing for selected compounds.

* CC(NCCC(c1ccccc1)c1ccccc1)c1ccccc1 (stereo not given) | 99.2%

Qu. Which cell viability value is on record for CCCCOC(=O)c1cc2c(cn1)[nH]c1ccccc12 ?
Ans. 102%

Qu. Then C=CC(=O)Nc1ccc2ncnc(Nc3cccc(Br)c3)c2c1 ?
Ans. 96.8%

Qu. Then Cc1c(S(=O)(=O)O)oc2c1C(=O)C(=O)c1c-2ccc2c1CCCC2(C)C [sodium-tanshinone-II-A-sulfonate] ?
Ans. 96.4%

Qu. Then COc1ccc(-n2c(SCc3nc(-c4ccc(C)cc4)no3)nnc2-c2ccncc2)cc1 ?
Ans. 96.4%

Qu. Then CCOCCOc1ccccc1C(N)=O [etosalamide] ?
Ans. 102%

Qu. Then COc1oc(=O)c2cc(N)ccc2c1Cl ?
Ans. 99.7%

----------
system: HepG2; assay: cell viability relative to DMSO; higher = less toxic; conditions: 72 h; 1 nM
cell viability listing for selected compounds.
Provide only the numeric value, understood in %.

Past entries and their recorded results:
- O=C(Nc1ccc(S(=O)(=O)Nc2nccs2)cc1)C(c1ccccc1)c1ccccc1: 104
- CN(C)NC(=O)CCC(=O)O [daminozide]: 103
- CN1C(C(=O)Nc2ccccn2)=C(O)c2sc(Cl)cc2S1(=O)=O: 91.1
- Oc1ccc2[nH]cc(C3=CCNCC3)c2n1: 107
- O=c1cc[nH]c(=O)[nH]1: 98.6
- CCOC(=O)Nc1ccc2c(c1)N(C(=O)CCN1CCOCC1)c1ccccc1S2: 94.6
- O=C([O-])CN1CCN(CC(=O)[O-])CCN([C@H](CO)[C@H](O)CO)CCN(CC(=O)[O-])CC1.[Gd+3] (racemic): 97
- O=c1[nH]c2ccccc2n1CCCN1CCC(n2c(=O)[nH]c3cc(Cl)ccc32)CC1: 94.6

Qu. Which cell viability value is on record for Cc1ccc2c(-c3ccccc3)nc(=O)n(C(C)C)c2c1 ?
Ans. 96.7

Qu. Then CN1CCOC(c2ccccc2)c2ccccc2C1 (stereo not drawn) ?
Ans. 95.8

Qu. Then N=C(N)NC(=N)Nc1ccccc1 [1-phenylbiguanide] ?
Ans. 97.3

Qu. Then CC(=O)[C@@]1(O)CC[C@H]2[C@@H]3C[C@H](C)C4=CC(=O)CC[C@]4(C)[C@H]3CC[C@@]21C ?
Ans. 94.7

Qu. Then CC(C)(C)c1ccc(CN(Cc2cccc(OCC(=O)O)c2)S(=O)(=O)c2cccnc2)cc1 ?
Ans. 99.1

Qu. Then N#Cc1ccc(Cn2cncc2CN2CCN(c3cccc(Cl)c3)C(=O)C2)cc1 ?
Ans. 108

Qu. Then CC(C)CCC[C@@H](C)[C@H]1CC[C@H]2[C@@H]3CC=C4C[C@@H](O)CC[C@]4(C)[C@H]3CC[C@]12C ?
Ans. 92.6

Qu. Then CN(C)CC[C@@](O)(c1ccccc1)c1ccccc1Cl ?
Ans. 93.7

Qu. Then CCCCCOC(=O)Nc1nc(=O)n([C@@H]2O[C@H](C)[C@@H](O)[C@H]2O)cc1F ?
Ans. 97

Qu. Then CCOC(=O)[C@H](CCc1ccccc1)N[C@@H](C)C(=O)N1Cc2ccccc2C[C@H]1C(=O)O ?
Ans. 106
